test: Apparent permeability from apical to basolateral side of human Caco-2 cells at 80 uM in donor chamber after 3 hrs; type: ADME, cell-based; settings: read-out: permeability
Observation Type: Papp A→B at 3 h, 80 µM
Be sure to follow the number with its unit.

Q) If you can, please state the reported Papp A→B at 3 h, 80 µM value of "Cc1c(O)cccc1C(=O)N[C@@H](CSc1ccccc1)[C@H](O)CN1C[C@H]2CCCC[C@H]2C[C@H]1C(=O)NC(C)(C)C" .
A) 1.03 ×10⁻⁶ cm/s

###

assay: Cytotoxicity against human CEM-SS cells after 5 days by MTT assay; type: cell-based
Observation Type: CC50 at 120 h

Compound String: CC(C)[C@H](N)C(=O)NCCCCCC(=O)O[C@@H](C[C@@H](Cc1ccccc1)C(=O)N[C@H]1c2ccccc2C[C@H]1OC(=O)CCCCCNC(=O)[C@@H](N)C(C)C)CN1CCN(Cc2cccnc2)C[C@H]1C(=O)NC(C)(C)C.O=C(O)C(F)(F)F.O=C(O)C(F)(F)F
CC50 at 120 h: > 50 µM

Compound String: Cc1c(OC(=O)CCCCCNC(=O)[C@@H](N)C(C)C)cccc1C(=O)N[C@@H](CSc1ccccc1)[C@H](O)CN1C[C@H]2CCCC[C@H]2C[C@H]1C(=O)NC(C)(C)C.O=C(O)C(F)(F)F
CC50 at 120 h: > 10 µM

Compound String: CC(C)[C@H](N)C(=O)O[C@@H]1Cc2ccccc2[C@@H]1NC(=O)[C@H](Cc1ccccc1)C[C@H](O)CN1CCN(Cc2cccnc2)C[C@H]1C(=O)NC(C)(C)C.O=C(O)C(F)(F)F
CC50 at 120 h: > 100 µM

Q) Fill in: CC50 at 120 h of "CC(C)[C@H](N)C(=O)NCCCCCC(=O)O[C@@H]1Cc2ccccc2[C@@H]1NC(=O)[C@H](Cc1ccccc1)C[C@H](O)CN1CCN(Cc2cccnc2)C[C@H]1C(=O)NC(C)(C)C.O=C(O)C(F)(F)F" is ___
A) > 10 µM

Q) What do you get for "CC(C)(C)NC(=O)[C@@H]1C[C@@H]2CCCC[C@@H]2CN1C[C@@H](O)[C@H](Cc1ccccc1)NC(=O)[C@H](CC(N)=O)NC(=O)c1ccc2ccccc2n1" ?
A) > 10 µM

###

experiment: Cytotoxicity against human CEM-SS cells after 5 days by MTT assay; type: cell-based
CC50 at 120 h values, listed per item

Solved cases below.
Molecule: CC(C)[C@@H](N)C(=O)NCCCCCC(=O)O[C@H](CN1C[C@H]2CCCC[C@H]2C[C@H]1C(=O)NC(C)(C)C)[C@H](Cc1ccccc1)NC(=O)[C@H](CC(N)=O)NC(=O)c1ccc2ccccc2n1.O=C(O)C(F)(F)F.O=C(O)C(F)(F)F.O=C(O)C(F)(F)F
CC50 at 120 h: 9 µM
//
Molecule: CC(C)(C)NC(=O)[C@@H]1CN(Cc2cccnc2)CCN1C[C@@H](O)C[C@@H](Cc1ccccc1)C(=O)N[C@H]1c2ccccc2C[C@H]1O.O=S(=O)(O)O [INDINAVIR SULFATE]
CC50 at 120 h: > 100 µM

Kindly review the next molecule as well.
Q) I am curious: what CC50 at 120 h value has been reported for "CC(C)[C@H](N)C(=O)O[C@H](CN1C[C@H]2CCCC[C@H]2C[C@H]1C(=O)NC(C)(C)C)[C@H](Cc1ccccc1)NC(=O)[C@H](CC(N)=O)NC(=O)c1ccc2ccccc2n1.O=C(O)C(F)(F)F" ?
A) > 10 µM
